Quick reference: TRZAWM rating (Selectivity) of the listed items.
test system: Triticum aestivum variety “Monopol”; experiment: Post-emergence test, selectivity; type: in vivo; conditions: 0.06 kg/ha, 2–4 weeks after treatment, rating 0-100 (100=death), Table 6
PROPERTY LABEL: TRZAWM rating (Selectivity)

smiles_str=Cc1cnc(-c2ccc(C(F)(F)F)cc2)nc1Oc1cccc(C(F)(F)F)c1 experimental_value=22
smiles_str=FC(F)(F)c1ccc(-c2nccc(Oc3cccc(C(F)(F)F)c3)n2)cc1 experimental_value=8
smiles_str=CCc1cc(Oc2cccc(C(F)(F)F)c2)nc(-c2ccc(C(F)(F)F)cc2)n1 experimental_value=15
smiles_str=Cc1nc(-c2ccc(C(F)(F)F)cc2)nc(Oc2cccc(C(F)(F)F)c2)c1C experimental_value=5

====

Listing of recorded SETVI weed control rating by entry.
system: Setaria viridis; experiment: Pre-emergence test, weed control; assay type: in vivo; settings: 0.120 kg/ha, 3 weeks after treatment, rating 0-100 (100=death), Table 3
PROPERTY LABEL: SETVI weed control rating

molecule="FC(F)(F)c1ccc(-c2nccc(Oc3ccnc(Cl)c3)n2)cc1 [CTP]" assayed_system="Setaria viridis" property_label="SETVI weed control rating" experimental_value=100
molecule="Cc1cnc(-c2ccc(C(F)(F)F)cc2)nc1Oc1ccnc(Cl)c1 [REF-4]" assayed_system="Setaria viridis" property_label="SETVI weed control rating" experimental_value=100
molecule="Cc1cc(Oc2ccnc(Cl)c2)nc(-c2ccc(C(F)(F)F)cc2)n1 [REF-6]" assayed_system="Setaria viridis" property_label="SETVI weed control rating" experimental_value=100
molecule="COc1cnc(-c2ccc(C(F)(F)F)cc2)nc1Oc1ccnc(Cl)c1 [REF-8]" assayed_system="Setaria viridis" property_label="SETVI weed control rating" experimental_value=90
molecule="CSc1cc(Oc2ccnc(Cl)c2)nc(-c2ccc(C(F)(F)F)cc2)n1 [REF-7]" assayed_system="Setaria viridis" property_label="SETVI weed control rating" experimental_value=93
molecule="Cc1nc(-c2ccc(C(F)(F)F)cc2)nc(Oc2ccnc(Cl)c2)c1C [REF-5]" assayed_system="Setaria viridis" property_label="SETVI weed control rating" experimental_value=95

====

tested on: Triticum aestivum variety “Monopol”; experiment: Post-emergence test, selectivity; format: in vivo; details: 0.24 kg/ha, 2–4 weeks after treatment, rating 0-100 (100=death), Table 6
TRZAWM rating (Selectivity) values for the molecules below.
PROPERTY LABEL: TRZAWM rating (Selectivity)

smiles_str=CCc1cc(Oc2cccc(C(F)(F)F)c2)nc(-c2ccc(C(F)(F)F)cc2)n1 experimental_value=30
smiles_str=Cc1cnc(-c2ccc(C(F)(F)F)cc2)nc1Oc1cccc(C(F)(F)F)c1 experimental_value=45
smiles_str=Cc1nc(-c2ccc(C(F)(F)F)cc2)nc(Oc2cccc(C(F)(F)F)c2)c1C experimental_value=8
smiles_str=FC(F)(F)c1ccc(-c2nccc(Oc3cccc(C(F)(F)F)c3)n2)cc1 experimental_value=12

====

test system: Lolium perenne; experiment: Pre-emergence test, weed control; type: in vivo; settings: 0.030 kg/ha, 3 weeks after treatment, rating 0-100 (100=death), Table 3
PROPERTY LABEL: LOLPE weed control rating

molecule="Cc1nc(-c2ccc(C(F)(F)F)cc2)nc(Oc2ccnc(Cl)c2)c1C [REF-5]" assayed_system="Lolium perenne" property_label="LOLPE weed control rating" experimental_value=40
molecule="FC(F)(F)c1ccc(-c2nccc(Oc3ccnc(Cl)c3)n2)cc1 [CTP]" assayed_system="Lolium perenne" property_label="LOLPE weed control rating" experimental_value=93
molecule="COc1cnc(-c2ccc(C(F)(F)F)cc2)nc1Oc1ccnc(Cl)c1 [REF-8]" assayed_system="Lolium perenne" property_label="LOLPE weed control rating" experimental_value=60
molecule="Cc1cnc(-c2ccc(C(F)(F)F)cc2)nc1Oc1ccnc(Cl)c1 [REF-4]" assayed_system="Lolium perenne" property_label="LOLPE weed control rating" experimental_value=98
molecule="CSc1cc(Oc2ccnc(Cl)c2)nc(-c2ccc(C(F)(F)F)cc2)n1 [REF-7]" assayed_system="Lolium perenne" property_label="LOLPE weed control rating" experimental_value=75
molecule="Cc1cc(Oc2ccnc(Cl)c2)nc(-c2ccc(C(F)(F)F)cc2)n1 [REF-6]" assayed_system="Lolium perenne" property_label="LOLPE weed control rating" experimental_value=95

====

tested on: VIOAR; assay: Pre-emergence test, weed control; type: in vivo; details: 0.060 kg/ha, 3 weeks after treatment, rating 0-100 (100=death), Table 3
PROPERTY LABEL: VIOAR weed control rating

smiles_str=Cc1cc(Oc2ccnc(Cl)c2)nc(-c2ccc(C(F)(F)F)cc2)n1 experimental_value=99
smiles_str=CSc1cc(Oc2ccnc(Cl)c2)nc(-c2ccc(C(F)(F)F)cc2)n1 experimental_value=99
smiles_str=Cc1cnc(-c2ccc(C(F)(F)F)cc2)nc1Oc1ccnc(Cl)c1 experimental_value=100
smiles_str=COc1cnc(-c2ccc(C(F)(F)F)cc2)nc1Oc1ccnc(Cl)c1 experimental_value=99
smiles_str=Cc1nc(-c2ccc(C(F)(F)F)cc2)nc(Oc2ccnc(Cl)c2)c1C experimental_value=97
smiles_str=FC(F)(F)c1ccc(-c2nccc(Oc3ccnc(Cl)c3)n2)cc1 experimental_value=100

====

tested on: Matricaria inodora; assay: Pre-emergence test, weed control; assay type: in vivo; conditions: 0.030 kg/ha, 3 weeks after treatment, rating 0-100 (100=death), Table 3
# MATIN weed control rating annotations
PROPERTY LABEL: MATIN weed control rating

compound="COc1cnc(-c2ccc(C(F)(F)F)cc2)nc1Oc1ccnc(Cl)c1 [REF-8]" experimental_value=95
compound="Cc1cnc(-c2ccc(C(F)(F)F)cc2)nc1Oc1ccnc(Cl)c1 [REF-4]" experimental_value=100
compound="Cc1cc(Oc2ccnc(Cl)c2)nc(-c2ccc(C(F)(F)F)cc2)n1 [REF-6]" experimental_value=99
compound="CSc1cc(Oc2ccnc(Cl)c2)nc(-c2ccc(C(F)(F)F)cc2)n1 [REF-7]" experimental_value=90
compound="Cc1nc(-c2ccc(C(F)(F)F)cc2)nc(Oc2ccnc(Cl)c2)c1C [REF-5]" experimental_value=85
compound="FC(F)(F)c1ccc(-c2nccc(Oc3ccnc(Cl)c3)n2)cc1 [CTP]" experimental_value=98

====

test system: Hordeum vulgare variety “Mammut”; assay: Pre-emergence test, selectivity; assay type: in vivo; settings: 0.030 kg/ha, 3 weeks after treatment, rating 0-100 (100=death), Table 2
PROPERTY LABEL: HORVWM rating (Selectivity)

smiles_str=Cc1nc(-c2ccc(C(F)(F)F)cc2)nc(Oc2cccc(C(F)(F)F)c2)c1C assayed_system="Hordeum vulgare variety “Mammut”" experimental_value=3
smiles_str=FC(F)(F)c1ccc(-c2nccc(Oc3cccc(C(F)(F)F)c3)n2)cc1 assayed_system="Hordeum vulgare variety “Mammut”" experimental_value=22
smiles_str=Cc1cnc(-c2ccc(C(F)(F)F)cc2)nc1Oc1cccc(C(F)(F)F)c1 assayed_system="Hordeum vulgare variety “Mammut”" experimental_value=45
smiles_str=CCc1cc(Oc2cccc(C(F)(F)F)c2)nc(-c2ccc(C(F)(F)F)cc2)n1 assayed_system="Hordeum vulgare variety “Mammut”" experimental_value=30

====

test system: VIOAR; assay: Pre-emergence test, weed control; type: in vivo; conditions: 0.120 kg/ha, 3 weeks after treatment, rating 0-100 (100=death), Table 3
PROPERTY LABEL: VIOAR weed control rating

smiles_str=Cc1cc(Oc2ccnc(Cl)c2)nc(-c2ccc(C(F)(F)F)cc2)n1 experimental_value=99
smiles_str=Cc1cnc(-c2ccc(C(F)(F)F)cc2)nc1Oc1ccnc(Cl)c1 experimental_value=100
smiles_str=COc1cnc(-c2ccc(C(F)(F)F)cc2)nc1Oc1ccnc(Cl)c1 experimental_value=100
smiles_str=CSc1cc(Oc2ccnc(Cl)c2)nc(-c2ccc(C(F)(F)F)cc2)n1 experimental_value=99
smiles_str=Cc1nc(-c2ccc(C(F)(F)F)cc2)nc(Oc2ccnc(Cl)c2)c1C experimental_value=98
smiles_str=FC(F)(F)c1ccc(-c2nccc(Oc3ccnc(Cl)c3)n2)cc1 experimental_value=100

====

test system: Veronica persica; assay: Pre-emergence test, weed control; type: in vivo; settings: 0.015 kg/ha, 3 weeks after treatment, rating 0-100 (100=death), Table 1
Reported VERPE weed control rating by item:
PROPERTY LABEL: VERPE weed control rating

smiles_str=Cc1cnc(-c2ccc(C(F)(F)F)cc2)nc1Oc1cccc(C(F)(F)F)c1 assayed_system="Veronica persica" property_label="VERPE weed control rating" experimental_value=100
smiles_str=Cc1nc(-c2ccc(C(F)(F)F)cc2)nc(Oc2cccc(C(F)(F)F)c2)c1C assayed_system="Veronica persica" property_label="VERPE weed control rating" experimental_value=25
smiles_str=CCc1cc(Oc2cccc(C(F)(F)F)c2)nc(-c2ccc(C(F)(F)F)cc2)n1 assayed_system="Veronica persica" property_label="VERPE weed control rating" experimental_value=100
smiles_str=FC(F)(F)c1ccc(-c2nccc(Oc3cccc(C(F)(F)F)c3)n2)cc1 assayed_system="Veronica persica" property_label="VERPE weed control rating" experimental_value=100
